Target: T1, recombinant cynomolgus monkey C5 (cynomolgus monkey, UniProt P01031 20-1676 (human entry), limits assumed)
T1 construct: also called cynoC5
T1 chain: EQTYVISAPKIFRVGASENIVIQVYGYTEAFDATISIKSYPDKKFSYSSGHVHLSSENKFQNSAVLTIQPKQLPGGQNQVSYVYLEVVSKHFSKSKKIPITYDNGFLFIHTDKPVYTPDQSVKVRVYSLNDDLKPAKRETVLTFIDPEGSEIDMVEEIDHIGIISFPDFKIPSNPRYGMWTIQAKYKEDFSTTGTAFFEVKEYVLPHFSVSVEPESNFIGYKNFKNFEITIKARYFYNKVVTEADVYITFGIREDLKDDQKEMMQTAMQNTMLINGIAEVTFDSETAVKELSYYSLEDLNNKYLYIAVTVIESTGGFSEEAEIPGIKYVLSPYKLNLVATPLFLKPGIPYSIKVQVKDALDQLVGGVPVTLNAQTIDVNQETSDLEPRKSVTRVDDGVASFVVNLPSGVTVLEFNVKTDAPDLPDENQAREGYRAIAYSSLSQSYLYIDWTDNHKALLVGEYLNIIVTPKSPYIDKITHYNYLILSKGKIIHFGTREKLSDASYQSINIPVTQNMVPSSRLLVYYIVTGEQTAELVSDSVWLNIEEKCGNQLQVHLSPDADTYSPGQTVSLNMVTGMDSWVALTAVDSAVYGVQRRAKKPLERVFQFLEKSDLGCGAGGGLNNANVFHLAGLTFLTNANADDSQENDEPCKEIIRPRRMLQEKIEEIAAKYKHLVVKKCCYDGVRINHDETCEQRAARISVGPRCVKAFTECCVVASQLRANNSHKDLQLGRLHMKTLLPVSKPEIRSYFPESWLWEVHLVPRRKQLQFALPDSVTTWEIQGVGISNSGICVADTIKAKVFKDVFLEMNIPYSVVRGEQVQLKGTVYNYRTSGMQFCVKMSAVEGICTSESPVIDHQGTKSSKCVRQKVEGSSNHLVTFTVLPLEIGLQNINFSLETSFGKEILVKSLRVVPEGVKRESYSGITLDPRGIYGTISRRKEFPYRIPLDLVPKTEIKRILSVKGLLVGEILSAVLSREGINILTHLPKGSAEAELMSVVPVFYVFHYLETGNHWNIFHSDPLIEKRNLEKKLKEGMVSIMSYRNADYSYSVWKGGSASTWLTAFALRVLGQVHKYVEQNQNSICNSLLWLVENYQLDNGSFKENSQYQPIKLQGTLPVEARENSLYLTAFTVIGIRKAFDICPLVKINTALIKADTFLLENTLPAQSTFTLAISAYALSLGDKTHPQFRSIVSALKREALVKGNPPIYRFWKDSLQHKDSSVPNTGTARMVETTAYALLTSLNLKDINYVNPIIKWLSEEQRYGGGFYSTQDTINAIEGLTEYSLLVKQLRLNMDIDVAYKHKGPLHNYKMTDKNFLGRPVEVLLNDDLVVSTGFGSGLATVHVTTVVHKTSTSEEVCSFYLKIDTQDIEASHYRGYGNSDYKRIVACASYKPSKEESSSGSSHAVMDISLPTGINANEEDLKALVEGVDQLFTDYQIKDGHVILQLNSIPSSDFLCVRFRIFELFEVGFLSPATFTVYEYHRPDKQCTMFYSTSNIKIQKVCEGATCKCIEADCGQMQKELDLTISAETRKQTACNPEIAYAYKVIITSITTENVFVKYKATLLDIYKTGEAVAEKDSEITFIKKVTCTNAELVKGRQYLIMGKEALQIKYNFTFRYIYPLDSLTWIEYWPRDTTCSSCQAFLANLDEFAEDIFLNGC
Experiment: SPR (Biacore), 37C, pH 7.4, Ab captured on ProA/G
PARAMETER: pKd
Note on pKd: it is the negative log10 of concentration, concentration in mol/L.

# input binder: CFA0305 (antibody, V domains shown, Chimeric, rabbit V regions; also called CFA0305-F760G4) VH: QSLEESGGDLVKPGASLAVTCTASGFSSSSSYYMCWVRQAPGKGLEWIGCIYTGSGATYYASWAKGRFTISKTSSTTVTLQMTSLTVADTATYFCASDGGYVTPTHAMYLWGPGTLVTVSS VL: DVVMTQTPASVSAAVGGTVTIKCQASQNIGSDLAWYQQKPGQPPRLLIYGASKLASGVSSRFSGSGSGKEFTLTISDLECADAVTYYCQCTFVGSSYGNAFGGGTEVVVK ; wanted: its pKd
7.26

# input binder: CFA0672 (antibody, V domains shown, Chimeric, rabbit V regions; also called CFA0672-F760G4) VH: QSVEESGGRLVTPGTPLTLTCTASGFSLSGNAINWVRQAPGKGLEWIGCIYTGSDTTYYATWAKGRFTISKTSTTVDLKIASPTTEDTATYFCARGSGLWGPGTLVTVSS VL: DVVMTQTPASVSAPVGGTVTIKCQASQNIYSLLAWYQQKPGQPPKLLIYHTSDLASGVPSRFRGSGSGTEFTLTISDLECADAATYYCQCTAYGSSDVGGTFGGGTTVVVE ; wanted: its pKd
8.54
